# assayed-system: rat brain benzodiazepine receptors (3H-diazepam receptor)
# run-description: benzodiazepine receptor binding test in vitro (inhibition of specific 3H-diazepam binding to rat brain membranes)
# condition-details: Ki = IC50/(1+C/KD), read-out: Ki (inhibitor constant, 3H-diazepam binding)
result-type: Ki (nM)
Express your answer in nM, writing the number without its unit.

Q) Could you share which Ki value was measured for COCCN(CCOC)c1nn2c(-c3ccc(OC)cc3)nnc2c2ccccc12 [Example 67] ?
A) 2.7

Q) Entry under review: COc1ccc(-c2nnc3c4ccccc4c(N4CCCC4)nn23)cc1 [Example 47] . Reported Ki?
A) 3.9

Q) What value of measured Ki is listed for c1ccc(-c2nnc3c4ccccc4c(N4CCCCC4)nn23)cc1 [Example 43] ?
A) 16

---

Please respond with reported LD50 for every item in the list.
# run-description: LD50 (acute toxicity, i.p.)
# condition-details: in vivo, ip

Q) What does the record list as LD50 for `COCCOc1nn2c(-c3ccc(OC)cc3)nnc2c2ccccc12` ?
A) ~500 mg/kg

Q) What does the data say about its LD50? Entry: `COCCN(CCOC)c1nn2c(-c3ccc(OC)cc3)nnc2c2ccccc12`
A) ≥ 300 mg/kg

Q) Value lookup for LD50; key = COc1ccc(-c2nnc3c4ccccc4c(N(C)CC(C)O)nn23)cc1 (stereo not drawn)
A) ≥ 300 mg/kg

---

# assayed-system: rat brain benzodiazepine receptors (3H-diazepam receptor)
# run-description: benzodiazepine receptor binding test in vitro (inhibition of specific 3H-diazepam binding to rat brain membranes)
# condition-details: Ki = IC50/(1+C/KD), read-out: Ki (inhibitor constant, 3H-diazepam binding)
Record form. Attribute: log10 Ki. Fill in for each entry.
Base-10 log of Ki, unit nM.

Q) # query: log10 Ki | item O=C1Nc2ccc(Cl)cc2C(c2ccccc2)=NC1O (stereo not drawn) [Oxazepam, reference compound] | system: rat brain benzodiazepine receptors (3H-diazepam receptor)
A) 0.72

Q) Query for rat brain benzodiazepine receptors (3H-diazepam receptor): what log10 Ki does the record show for CN(C)c1nn2c(-c3ccccc3)nnc2c2ccccc12 [Example 41] ?
A) 1.32

Q) Reported log10 Ki for rat brain benzodiazepine receptors (3H-diazepam receptor), given COCCOc1nn2c(-c3ccc(OC)cc3)nnc2c2ccccc12 [Example 105] ?
A) -0.05

Q) Request: log10 Ki, test system rat brain benzodiazepine receptors (3H-diazepam receptor), entry c1ccc(-c2nnc3c4ccccc4c(N4CCOCC4)nn23)cc1 [Example 30]
A) 1.26

Q) Give rat brain benzodiazepine receptors (3H-diazepam receptor) log10 Ki for COc1ccc(-c2nnc3c4ccccc4c(N(C)CCCC#N)nn23)cc1 [Example 107]
A) -0.25

Q) Please provide the recorded log10 Ki for Nc1ccc(-c2nnc3c4ccccc4c(N4CCCC4)nn23)cc1 [Example 75] , tested on rat brain benzodiazepine receptors (3H-diazepam receptor).
A) 1.46

Q) Entry CCS(=O)(=O)c1nn2c(-c3ccccc3)nnc2c2ccccc12 [Example 112] , system rat brain benzodiazepine receptors (3H-diazepam receptor): what log10 Ki was measured?
A) 1.78

Q) Value wanted: log10 Ki (rat brain benzodiazepine receptors (3H-diazepam receptor)) of entry COc1ccc(-c2nnc3c4ccccc4c(N(C)CCCO)nn23)cc1 [Example 32]
A) -0.01

Q) Item CCN(CC)CCN1C(=O)CN=C(c2ccccc2F)c2cc(Cl)ccc21 [Flurazepam, reference compound] with rat brain benzodiazepine receptors (3H-diazepam receptor) - log10 Ki?
A) 0.93

---

# assayed-system: rat brain benzodiazepine receptors (3H-diazepam receptor)
# run-description: benzodiazepine receptor binding test in vitro (inhibition of specific 3H-diazepam binding to rat brain membranes)
# condition-details: Ki = IC50/(1+C/KD), read-out: Ki (inhibitor constant, 3H-diazepam binding)
Entry class follows Ki: lower bin: < 8 nM; middle bin: ≥ 8 nM and < 30 nM; upper bin: ≥ 30 nM

Q) Note: place this compound into its band. Item: `CC1(C)CN(c2nn3c(-c4ccccc4)nnc3c3ccccc23)C1`
A) upper bin

Q) Note: place this compound into its band. Item: CC(O)CN(C)c1nn2c(-c3ccccc3)nnc2c2ccccc12 (centres unmarked)
A) middle bin

Q) Record `CCOC(=O)C1CCN(c2nn3c(-c4ccc(OC)cc4)nnc3c3ccccc23)CC1` — which class?
A) lower bin

Q) # bin label for COc1ccc(-c2nnc3c4ccccc4c(N(C)CC(C)O)nn23)cc1 (centres unmarked)
A) middle bin

Q) Assign a bin to `CCNc1nn2c(-c3ccccc3)nnc2c2ccccc12`
A) upper bin

Q) Form field 'band' for `COc1ccc(-c2nnc3c4ccccc4c(OCCCCO)nn23)cc1`
A) lower bin

Q) Textbook exercise: identify the category of the compound given here, `CCN(C)c1nn2c(-c3ccccc3)nnc2c2ccccc12` , according to its measured value.
A) middle bin

Q) Any idea which band `CNc1nn2c(-c3ccccc3)nnc2c2ccccc12` is in?
A) upper bin

Q) Category of `CC(=O)Nc1ccc(-c2nnc3c4ccccc4c(N4CCCC4)nn23)cc1` :
A) upper bin

Q) # classify by Ki band: CC1CC(C)CN(c2nn3c(-c4ccccc4)nnc3c3ccccc23)C1 (centres unmarked)
A) upper bin

Q) Note: place this compound into its band. Item: `CN1CCN(c2nn3c(-c4ccccc4)nnc3c3ccccc23)CC1`
A) upper bin

Q) Consider `CCOc1nn2c(-c3ccc(OC)cc3)nnc2c2ccccc12` . To which Ki class does it belong?
A) lower bin

Q) Any idea which band `CCOC(=O)CCCOc1nn2c(-c3ccc(OC)cc3)nnc2c2ccccc12` is in?
A) lower bin

Q) Which bin, given its Ki, does `Oc1ccc(-c2nnc3c4ccccc4c(N4CCCC4)nn23)cc1` occupy?
A) middle bin

Q) Please classify: COc1ccc(-c2nnc3c4ccccc4c(N4CCC(O)C4)nn23)cc1 (centres unmarked)
A) lower bin

Q) Category of `CCN(CC)c1nn2c(-c3ccccc3)nnc2c2ccccc12` :
A) upper bin

Q) Category of `Fc1ccc(-c2nnc3c4ccccc4c(N4CCCC4)nn23)cc1` , please.
A) middle bin

Q) Hey, which category is `c1ccc(-c2nnc3c4ccccc4c(N4CCCC4)nn23)cc1` in, do you know?
A) middle bin

Q) State the band of `CCOC(=O)CCCN(C)c1nn2c(-c3ccc(OC)cc3)nnc2c2ccccc12`
A) lower bin
